Consider the following pKi values measured on H1 (Homo sapiens).
Sequence (P35367 whole entry): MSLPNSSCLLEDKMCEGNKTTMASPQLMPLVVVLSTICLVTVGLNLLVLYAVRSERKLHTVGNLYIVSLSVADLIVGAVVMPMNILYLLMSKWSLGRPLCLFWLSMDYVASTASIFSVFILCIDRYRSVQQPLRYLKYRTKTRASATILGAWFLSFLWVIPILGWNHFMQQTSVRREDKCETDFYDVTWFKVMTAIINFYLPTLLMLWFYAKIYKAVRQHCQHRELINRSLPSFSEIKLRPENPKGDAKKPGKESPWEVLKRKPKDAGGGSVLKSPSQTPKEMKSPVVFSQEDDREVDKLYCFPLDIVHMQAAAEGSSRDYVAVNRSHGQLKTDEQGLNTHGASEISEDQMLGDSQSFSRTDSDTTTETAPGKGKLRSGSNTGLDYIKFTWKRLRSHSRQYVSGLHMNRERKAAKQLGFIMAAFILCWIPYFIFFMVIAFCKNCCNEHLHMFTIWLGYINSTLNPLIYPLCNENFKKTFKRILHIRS
pKi: −log10 of the molar value.

>  <Compound>
c1ccc2c3c([nH]c2c1)C1CC2C[C@H](C4CCOCC4)C1N(CC3)C2 (some centres unmarked) [7i]

>  <Assayed target>
H1 (Homo sapiens)

>  <pKi>
6.05

$$$$
>  <Compound>
CCC1CC2CC3c4c(c5ccccc5n4CC=C(C)C)CCN(C2)C13 (centres unmarked) [compound 23]

>  <Assayed target>
H1 (Homo sapiens)

>  <pKi>
5.77

$$$$

###

Consider the following pKi values measured on NET (Homo sapiens, UniProt P23975).
Sequence (P23975 whole entry): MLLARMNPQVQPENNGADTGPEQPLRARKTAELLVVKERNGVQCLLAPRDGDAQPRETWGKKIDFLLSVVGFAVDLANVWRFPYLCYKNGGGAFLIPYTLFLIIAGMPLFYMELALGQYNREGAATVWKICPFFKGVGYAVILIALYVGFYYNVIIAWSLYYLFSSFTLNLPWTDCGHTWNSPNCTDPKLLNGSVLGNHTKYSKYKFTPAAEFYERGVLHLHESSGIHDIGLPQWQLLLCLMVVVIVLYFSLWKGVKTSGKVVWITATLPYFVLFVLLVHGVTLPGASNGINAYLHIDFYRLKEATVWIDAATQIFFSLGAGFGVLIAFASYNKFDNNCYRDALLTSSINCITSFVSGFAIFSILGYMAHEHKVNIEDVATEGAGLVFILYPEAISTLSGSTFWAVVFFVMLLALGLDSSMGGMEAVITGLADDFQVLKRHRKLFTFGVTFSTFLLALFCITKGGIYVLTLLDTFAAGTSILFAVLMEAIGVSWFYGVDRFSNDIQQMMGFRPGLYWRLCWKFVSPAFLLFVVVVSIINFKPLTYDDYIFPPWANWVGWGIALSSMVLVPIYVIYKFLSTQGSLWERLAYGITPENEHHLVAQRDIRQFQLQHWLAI
pKi: −log10 of the molar value.

>  <Compound>
CCC1CC2CC3c4[nH]c5cc(F)ccc5c4CCN(C2)C13 (stereo not drawn)

>  <pKi>
5.24

$$$$
>  <Compound>
CCC1CC2CC3c4[nH]c5cc(Br)ccc5c4CCN(C2)C13 (stereo not drawn)

>  <pKi>
5.76

$$$$
>  <Compound>
CCC1CC2CC3c4[nH]c5cc(Cl)ccc5c4CCN(C2)C13 (stereo not drawn)

>  <pKi>
5.75

$$$$

###

molecular target: D3 (Homo sapiens, UniProt P35462); test: PDSP secondary radioligand displacement assay, Ki; type: binding
Sequence (P35462 whole entry): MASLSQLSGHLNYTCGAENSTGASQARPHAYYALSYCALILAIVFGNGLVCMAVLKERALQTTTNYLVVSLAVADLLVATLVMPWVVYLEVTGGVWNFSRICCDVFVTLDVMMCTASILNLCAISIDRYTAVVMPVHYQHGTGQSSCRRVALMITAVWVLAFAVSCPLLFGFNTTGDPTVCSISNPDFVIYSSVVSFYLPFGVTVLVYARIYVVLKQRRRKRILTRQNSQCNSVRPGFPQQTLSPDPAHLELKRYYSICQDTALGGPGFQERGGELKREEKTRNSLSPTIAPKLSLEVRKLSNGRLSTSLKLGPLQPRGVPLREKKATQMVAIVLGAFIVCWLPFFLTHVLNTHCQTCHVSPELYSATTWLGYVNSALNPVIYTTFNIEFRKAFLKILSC

>  <Compound>
CCC1CC2CC3c4c(c5ccccc5n4CC=C(C)C)CCN(C2)C13 (stereo not shown)

>  <Ki>
249 nM

$$$$

###

Reported Ki values follow for various compounds
Target: M1 (Homo sapiens, UniProt P11229)
Sequence (P11229 1-460): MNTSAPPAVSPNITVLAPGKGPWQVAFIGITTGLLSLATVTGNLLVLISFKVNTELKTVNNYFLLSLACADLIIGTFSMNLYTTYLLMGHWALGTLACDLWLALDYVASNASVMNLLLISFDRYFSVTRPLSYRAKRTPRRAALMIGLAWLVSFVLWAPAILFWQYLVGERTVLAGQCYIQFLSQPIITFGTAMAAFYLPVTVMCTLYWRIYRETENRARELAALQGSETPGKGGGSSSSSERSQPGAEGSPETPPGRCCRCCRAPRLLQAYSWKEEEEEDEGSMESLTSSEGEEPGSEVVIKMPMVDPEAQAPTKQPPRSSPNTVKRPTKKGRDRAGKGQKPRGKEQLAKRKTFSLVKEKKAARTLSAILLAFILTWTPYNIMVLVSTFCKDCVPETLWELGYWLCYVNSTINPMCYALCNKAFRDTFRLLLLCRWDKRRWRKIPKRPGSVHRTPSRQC
Test: PDSP secondary radioligand displacement assay, Ki
Type: binding

>  <Compound>
c1ccc2c3c([nH]c2c1)C1CC2C[C@H](C4CCOCC4)C1N(CC3)C2 (some centres unmarked)

>  <Measurement units>
nM

>  <Ki>
138

$$$$
>  <Compound>
CCC1CC2CC3c4[nH]c5cc(C(F)(F)F)ccc5c4CCN(C2)C13 (centres unmarked)

>  <Measurement units>
nM

>  <Ki>
4570

$$$$
